assay: LAMP-1 surface exposure blockers, TALL-104 cells – cell-based, flow cytometry, MLPCN library, primary screen (AID 651702); details: TALL-104 LAMP-1 surface exposure, at 10 µM, cells stimulated with thapsigargin and PMA
Out of some 360,000 compounds screened, about 2,400 (0.67%) were called active.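 Rule for the calls: active = inhibition above about 55% (limit read from the data); inconclusive = no clear call, values can overlap the other calls; inactive = the rest.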 Many of the other results were omitted from the sample, so actives are more common in it than they were.
Log the outcome using a class from active, inactive

Before answering, review these 2 worked examples.
{"columns": ["Compound", "Assigned label"],
 "data": [
  ["CCN1C(=O)[C@H]2[C@@H](c3ccc(-c4ccc(OC)cc4)cc3)N[C@@](Cc3ccccc3)(C(=O)OC)[C@H]2C1=O", "inactive"],
  ["Cc1ccc(C(=O)O)cc1-c1ccc(/C=C2\\SC(=O)N(CC(=O)Nc3ccc4c(c3)OCO4)C2=O)o1", "inactive"]
]}

Query block: Query: recorded result category for CC1CCCC(C)N1C(=O)CSc1nnnn1C1CCCC1 (stereo unspecified) in this test
Result block: inactive

###

assay: LAMP-1 surface exposure blockers, TALL-104 cells – cell-based, flow cytometry, MLPCN library, primary screen (AID 651702); conditions: TALL-104 LAMP-1 surface exposure, at 10 µM, cells stimulated with thapsigargin and PMA
Out of some 360,000 compounds screened, about 2,400 (0.67%) were called active.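 Rule for the calls: active = inhibition above about 55% (limit read from the data); inconclusive = no clear call, values can overlap the other calls; inactive = the rest.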 The list comes from a sample in which actives are over-represented; it also holds close analogues and randomly drawn compounds.
Answer with one of the outcomes given here: Yes = active, No = inactive

Some solved entries appear below for comparison.
{"columns": ["Compound", "Assigned label"],
 "data": [
  ["O=C(c1n[nH]c2c1CCC2)N1CCCC(Nc2cccc(F)c2)C1 (stereo not drawn)", "No"],
  ["COc1ccc2sc(-c3ccc(N(C)C)cc3)c(-c3ccc4cc[nH]c4c3)c2c1", "Yes"]
]}

Query block: Recorded test call requested for Cc1cc(F)ccc1NC(=O)C(C)n1c2ccccc2c2nc(=O)cc(C)n21 (stereo not drawn)
Result block: No

Query block: For COc1cccc(OC)c1C(=O)N1CCN(Cc2ccccc2F)CC1 , what call appears in the results of this test?
Result block: No

###

inhibition values for the compounds below.
assay: LAMP-1 surface exposure blockers, TALL-104 cells – cell-based, flow cytometry, MLPCN library, primary screen (AID 651702); details: TALL-104 LAMP-1 surface exposure, at 10 µM, hits give high values, cells stimulated with thapsigargin and PMA
Among all 360,000 compounds or so, about 2,400 (0.67%) were called active. The full list was thinned out, with actives kept by preference.
Just the number in %, nothing appended.

{"columns": ["Compound", "inhibition (%)"],
 "data": [
  ["COc1ccc(-c2cc(C(=O)N(C)Cc3ccccc3)c3ccccc3n2)cc1", 74.5],
  ["C=CCC[C@@H](CCCCC)OC(=O)/C=C/[C@@H](O)[C@H](O)C[C@H](O)CC=C", -9.1]
]}

Query block: Using the record for O=C(CN1C(=O)NC2(CCc3ccccc32)C1=O)NC1CCCCC1 (stereo unspecified) , report its inhibition.
Result block: -1.5

Query block: Any idea what inhibition was measured for CC(C)CCN1CCN=C1N(C)C ?
Result block: -1.5

###

test: LAMP-1 surface exposure blockers, TALL-104 cells – cell-based, flow cytometry, MLPCN library, primary screen (AID 651702); conditions: TALL-104 LAMP-1 surface exposure, at 10 µM, hits give high values, cells stimulated with thapsigargin and PMA
Among all 360,000 compounds or so, about 2,400 (0.67%) were called active. The list comes from a sample in which actives are over-represented; it also holds close analogues and randomly drawn compounds.
Each entry below carries its reported inhibition.
Report the figure in % without appending any unit label.

{"columns": ["Compound", "inhibition (%)"],
 "data": [
  ["CS(=O)(=O)N(Cc1ccc(Cl)cc1)c1ccc(C(=O)NCCSCc2ccco2)cc1", 95.2],
  ["Cc1ccc(-n2nc(N)c3c(=O)oc(N(C)C)nc32)cc1", -0.9],
  ["COc1ccccc1CC(NC(C)=O)C(=O)NC1CCN(C(=O)Nc2ccccc2Cl)CC1 (stereo not drawn)", 6.8],
  ["CCc1sc(C(=O)N2CCN(CC(=O)Nc3cccc(F)c3)CC2)cc1C", -5.4],
  ["COc1ccc(-c2csc(Nc3ccc(O)cc3)n2)cc1", 67.8]
]}

Query block: # lookup: inhibition of Cc1cccc(C)c1NC(=O)C(Cl)C(=O)c1ccccc1 (stereo not drawn)
Result block: 72.7

Query block: Look up inhibition: COc1cc(Br)c(-c2sc(Nc3ccccc3)n[n+]2-c2ccccc2)cc1OC
Result block: -3.6

Query block: Any idea what its inhibition is? The compound is COc1ccc(C(O)c2nc(-c3ccc(OC)nc3)cs2)cc1 (stereo not drawn)
Result block: -0.4

Reference for the values: PubChem BioAssay AID651702
